Molecular target: thioredoxin reductase (Rattus norvegicus, UniProt O89049)
Construct: rat liver thioredoxin reductase; purchased Sigma (St. Louis, Mo.); host or cells: rat liver
Sequence (O89049 1-499): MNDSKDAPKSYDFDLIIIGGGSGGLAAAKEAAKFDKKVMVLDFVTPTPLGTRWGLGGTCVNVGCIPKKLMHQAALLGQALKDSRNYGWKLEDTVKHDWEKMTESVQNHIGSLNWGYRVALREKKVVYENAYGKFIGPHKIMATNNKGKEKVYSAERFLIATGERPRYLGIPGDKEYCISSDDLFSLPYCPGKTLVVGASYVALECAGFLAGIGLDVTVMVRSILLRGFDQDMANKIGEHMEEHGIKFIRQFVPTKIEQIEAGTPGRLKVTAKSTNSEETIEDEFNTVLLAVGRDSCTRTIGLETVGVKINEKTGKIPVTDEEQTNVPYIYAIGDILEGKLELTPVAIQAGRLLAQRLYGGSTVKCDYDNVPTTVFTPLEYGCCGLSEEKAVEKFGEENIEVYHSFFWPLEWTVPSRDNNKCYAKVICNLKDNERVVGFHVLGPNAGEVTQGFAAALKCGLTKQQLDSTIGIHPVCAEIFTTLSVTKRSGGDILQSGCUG
Experiment: Thioredoxin reductase activity assay (gel-based oxidation state of thioredoxin method)
Assay type: biochemical
Settings: gel-based, AMS modification
readout_kind: inhibition of reduction of thioredoxin by thioredoxin reductase

{"compound": "COc1ccc2c3c4n(c2c1)[C@H](C=C(C)C)OOC(C)(C)C[C@@H]4N1C(=O)[C@@H]2CCCN2C(=O)[C@]1(O)[C@H]3O [verruculogen, reference compound]", "reported_value": "inability"}
{"compound": "CS[C@@]1(CO)C(=O)N2[C@H]3Nc4ccccc4[C@@]3([C@]34C[C@]5(SC)C(=O)N(C)[C@@](CO)(SC)C(=O)N5[C@H]3Nc3ccccc34)C[C@]2(SC)C(=O)N1C", "reported_value": "inability"}
